System: Athelia rolfsii
run-description: Antifungal activity against Athelia rolfsii assessed as growth inhibition at 100 ppm by agar dilution method relative to control
Assay type: functional
test-conditions: Agroathelia rolfsii; read-out: GI
Below, each of the compounds is paired with its reported inhibition of growth at 100 ppm value.
measured-property: inhibition of growth at 100 ppm

compound=CCOP(=S)(OCC)Oc1cc(CCc2ccccc2)oc(=O)c1 result=57%
compound="COc1cc(/C=C/c2ccccc2)oc(=O)c1 [DESMETHOXYYANGONIN]" result=0%
compound=O=c1cc(O)cc(CCc2ccccc2)o1 result=44%
compound="COc1cc(CCc2ccccc2)oc(=O)c1 [DIHYDRO-5,6-DEHYDROKAWAIN]" result=64%
compound=COP(=S)(OC)Oc1cc(CCc2ccccc2)oc(=O)c1 result=91%
